Taken from patent US11279707B2.

Target: DRAK1 (Homo sapiens, UniProt Q9UEE5)
Sequence (Q9UEE5 whole entry, species assumed): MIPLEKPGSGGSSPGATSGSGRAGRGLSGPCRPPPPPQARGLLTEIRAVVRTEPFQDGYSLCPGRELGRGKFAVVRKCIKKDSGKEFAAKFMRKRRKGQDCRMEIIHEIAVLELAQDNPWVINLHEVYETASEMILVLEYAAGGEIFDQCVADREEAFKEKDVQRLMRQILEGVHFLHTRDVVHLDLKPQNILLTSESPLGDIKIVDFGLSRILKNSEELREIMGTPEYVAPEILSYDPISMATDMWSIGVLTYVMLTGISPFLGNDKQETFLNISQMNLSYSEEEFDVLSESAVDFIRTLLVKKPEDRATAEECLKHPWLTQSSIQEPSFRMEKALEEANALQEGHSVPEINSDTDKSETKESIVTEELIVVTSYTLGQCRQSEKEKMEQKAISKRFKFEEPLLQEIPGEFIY
Assay: kinase inhibition, DRAK1
Type: biochemical
pIC50: −log10 of the molar value.
# reported pIC50; entries follow

Example results:
>  <SMILES>
COc1cc(C(=O)N2CCC(N3CCN(C)CC3)CC2)ccc1Nc1ncc2c(n1)n1c(cc3ccccc31)c(=O)n2C

>  <REPORTED_RESULT>
5.30 to 6.00

$$$$
>  <SMILES>
COc1cc(N2CCN(C)CC2)ccc1Nc1ncc2c(n1)n1c(cc3ccccc31)c(=O)n2C

>  <REPORTED_RESULT>
6.60 to 7.30

$$$$
>  <SMILES>
COc1cc(N2CCC(O)CC2)ccc1Nc1ncc2c(n1)n1c(cc3ccccc31)c(=O)n2C

>  <REPORTED_RESULT>
6.60 to 7.30

$$$$

Turning now to a further molecule:
Value of pIC50 reported for the molecule CN1CCN(c2ccc(Nc3ncc4c(n3)n3c(cc5ccccc53)c(=O)n4C)cc2)CC1 is 6.60 to 7.30
